Here the recorded protection from staurosporine, viability EC50, MCF10A cells is given for each entry.
- TEST SYSTEM: native human MET on living cells (human, UniProt P08581 25-1390)
- Sequence (P08581 25-1390): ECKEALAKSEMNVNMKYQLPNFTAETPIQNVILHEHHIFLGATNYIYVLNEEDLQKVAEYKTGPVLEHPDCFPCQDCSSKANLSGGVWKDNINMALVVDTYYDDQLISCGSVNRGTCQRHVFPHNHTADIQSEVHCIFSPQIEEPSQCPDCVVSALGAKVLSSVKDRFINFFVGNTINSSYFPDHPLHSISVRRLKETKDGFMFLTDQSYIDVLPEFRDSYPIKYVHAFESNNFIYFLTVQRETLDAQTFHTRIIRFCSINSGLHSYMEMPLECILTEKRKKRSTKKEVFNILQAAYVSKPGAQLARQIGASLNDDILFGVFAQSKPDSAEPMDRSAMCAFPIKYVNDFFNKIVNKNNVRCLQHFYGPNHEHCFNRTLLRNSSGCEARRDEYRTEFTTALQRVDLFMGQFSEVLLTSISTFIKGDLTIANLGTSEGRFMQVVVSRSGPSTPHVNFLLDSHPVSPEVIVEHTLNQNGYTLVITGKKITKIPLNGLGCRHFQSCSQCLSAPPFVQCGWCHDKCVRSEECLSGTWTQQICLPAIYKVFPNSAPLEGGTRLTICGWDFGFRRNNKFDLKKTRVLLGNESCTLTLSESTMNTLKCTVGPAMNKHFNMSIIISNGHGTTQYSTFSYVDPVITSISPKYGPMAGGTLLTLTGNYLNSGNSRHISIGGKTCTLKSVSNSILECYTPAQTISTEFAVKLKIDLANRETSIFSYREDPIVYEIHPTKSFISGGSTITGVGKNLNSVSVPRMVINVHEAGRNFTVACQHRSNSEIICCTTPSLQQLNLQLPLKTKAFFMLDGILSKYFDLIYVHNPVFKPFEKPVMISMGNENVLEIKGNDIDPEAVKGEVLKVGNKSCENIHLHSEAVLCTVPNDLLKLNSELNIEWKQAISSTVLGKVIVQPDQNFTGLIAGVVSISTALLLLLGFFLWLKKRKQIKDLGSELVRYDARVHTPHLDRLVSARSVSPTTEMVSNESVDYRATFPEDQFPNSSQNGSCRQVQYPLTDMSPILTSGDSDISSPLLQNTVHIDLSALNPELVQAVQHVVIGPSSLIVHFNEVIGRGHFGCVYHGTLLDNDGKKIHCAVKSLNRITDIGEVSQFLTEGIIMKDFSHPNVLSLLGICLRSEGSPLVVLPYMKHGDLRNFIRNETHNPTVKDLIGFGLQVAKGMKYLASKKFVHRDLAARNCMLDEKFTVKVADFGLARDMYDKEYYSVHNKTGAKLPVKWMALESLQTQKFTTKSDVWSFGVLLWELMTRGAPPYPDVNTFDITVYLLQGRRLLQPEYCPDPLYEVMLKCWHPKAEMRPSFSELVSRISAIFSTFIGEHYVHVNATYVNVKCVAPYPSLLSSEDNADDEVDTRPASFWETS
- PROTOCOL NOTES: cell-based or functional assay
Form entry: value (nM) — number only.

Would you please look over these solved cases?
71D6 chimeric llama-human IgG1 mAb (antibody, V domains shown, llama VH on human IgG1 CH1-CH2-CH3, llama VL on human lambda CL) VH: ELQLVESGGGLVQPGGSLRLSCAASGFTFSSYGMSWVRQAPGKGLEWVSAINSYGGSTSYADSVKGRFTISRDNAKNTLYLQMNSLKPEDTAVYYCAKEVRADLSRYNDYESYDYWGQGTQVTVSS VL: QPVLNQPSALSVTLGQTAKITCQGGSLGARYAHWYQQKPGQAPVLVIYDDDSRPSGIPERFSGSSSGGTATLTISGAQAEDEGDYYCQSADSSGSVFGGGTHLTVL ... 1.48
71G3 chimeric llama-human IgG1 mAb (antibody, V domains shown, llama VH on human IgG1 CH1-CH2-CH3, llama VL on human lambda CL) VH: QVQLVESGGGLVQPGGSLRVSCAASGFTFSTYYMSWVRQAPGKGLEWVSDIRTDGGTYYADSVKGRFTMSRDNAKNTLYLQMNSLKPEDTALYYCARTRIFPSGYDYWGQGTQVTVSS VL: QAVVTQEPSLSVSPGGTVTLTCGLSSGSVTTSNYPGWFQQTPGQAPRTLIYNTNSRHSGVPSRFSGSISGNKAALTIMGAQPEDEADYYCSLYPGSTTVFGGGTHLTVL ... 5.04

Proceeding to the next binder to report its protection from staurosporine, viability EC50, MCF10A cells.
Exercise: Reported protection from staurosporine, viability EC50, MCF10A cells, binder 71G2 chimeric llama-human IgG1 mAb (antibody, V domains shown, llama VH on human IgG1 CH1-CH2-CH3, llama VL on human lambda CL) VH: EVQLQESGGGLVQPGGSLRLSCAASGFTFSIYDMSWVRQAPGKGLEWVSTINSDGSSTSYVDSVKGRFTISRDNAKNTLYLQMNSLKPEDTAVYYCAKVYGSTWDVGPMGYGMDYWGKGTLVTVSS VL: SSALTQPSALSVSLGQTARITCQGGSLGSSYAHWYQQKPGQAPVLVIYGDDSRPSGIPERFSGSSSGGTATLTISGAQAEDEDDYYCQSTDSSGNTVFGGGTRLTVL : ____
Key: 1.06
